Target: PDZ1 domain of MDA-9/Syntenin (PDZ12) (Homo sapiens)
Construct: HSQC spectrum of 50 μM PDZ12 caused by compound at 1:1 molar ratio
Sequence (O00560 110-273 limits assumed): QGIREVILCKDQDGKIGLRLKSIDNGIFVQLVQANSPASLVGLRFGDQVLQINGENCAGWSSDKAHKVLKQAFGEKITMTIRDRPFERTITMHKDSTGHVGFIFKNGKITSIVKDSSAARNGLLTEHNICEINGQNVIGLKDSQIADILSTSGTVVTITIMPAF
Assay: [15N,1H] HSQC chemical shift change ranking of compound affinity
Type: binding
Conditions: chemical shift changes (DPPM) of backbone amide of residue 147, 50 μM PDZ12, compound at 1:1 molar ratio
Source text: *Rank ordering of compound affinity for PDZ1 were estimated based on chemical shift changes (DPPM) of the backbone amide of residue 147 on the [^15N,^1H] […] Kd values reported in parentheses were obtained by NMR titration experiments following the chemical shifts of the backbone amide of residue 147 at different ligand concentrations.
Reported Property: Binding affinity ranking

Below: 5 molecules and their reported Binding affinity ranking.
1) CCCc1cc(=O)n2nc(COc3ccccc3)nc2[nH]1 [cmpd14]
1 (1 for DPPM 0.00-0.02)
2) Cc1[nH]c2nc(C(=O)NCc3ccccc3)nn2c(=O)c1C [cmpd5]
2 (2 for DPPM 0.02-0.04)
3) Cc1cc(=O)n2nc(C(=O)Nc3cc(Cl)c(O)c(Cl)c3)nc2[nH]1 [112G1]
6 (6 for DPPM above 0.1)
4) COc1cccc(NC(=O)c2nc3[nH]c(C)cc(=O)n3n2)c1 [cmpd8]
3 (3 for DPPM 0.04-0.06)
5) O=C(Nc1ccc(O)c(F)c1)c1nc2[nH]c3c(c(=O)n2n1)CCC3 [112F12]
2 (2 for DPPM 0.02-0.04)

Q: Look up Binding affinity ranking for this molecule: Cc1cc(NC(=O)c2nc3[nH]c4c(c(=O)n3n2)CCC4)c(C)cc1NC(=O)CCc1nnc(-c2cccc(C(F)(F)F)c2)o1 [112H9]
A: 2 (2 for DPPM 0.02-0.04)

Q: One more molecule: Cc1cc(=O)n2nc(C(=O)Nc3ccc(O)c(F)c3)nc2[nH]1 [112G2]
A: 4 (4 for DPPM 0.06-0.08)

Q: Subsequent entry: O=C(Nc1ccc(O)cc1)c1nc2[nH]c3c(c(=O)n2n1)CCC3 [112E12]
A: 1 (1 for DPPM 0.00-0.02)

Q: Request: Cc1cc(=O)n2nc(COc3ccccc3)nc2[nH]1 [30A9]
A: 4 (4 for DPPM 0.06-0.08)

====

target: PDZ1 domain of MDA-9/Syntenin (PDZ12) (Homo sapiens); construct: HSQC spectrum of 50 μM PDZ12 caused by compound at 1:1 molar ratio; assay: [15N,1H] HSQC chemical shift change ranking of compound affinity; assay type: binding; settings: chemical shift changes (DPPM) of backbone amide of residue 147, 50 μM PDZ12, compound at 1:1 molar ratio
We begin with a simple list: items and their reported Binding affinity ranking.

Some solved entries appear below for comparison.
1. Cc1cc(=O)n2nc(CCc3ccccc3)nc2[nH]1 [cmpd2]
3 (3 for DPPM 0.04-0.06)
2. Cc1cc(NC(=O)c2nc3[nH]c4c(c(=O)n3n2)CCC4)c(C)cc1NC(=O)CCc1nnc(-c2ccccc2)o1 [113B7]
4 (4 for DPPM 0.06-0.08)
3. O=C(Nc1ccc(O)c(Cl)c1)c1nc2[nH]c3c(c(=O)n2n1)CCC3 [112F10]
4 (4 for DPPM 0.06-0.08)
4. Cc1cc(O)n2nc(C(=O)Nc3ccc(O)cc3)nc2n1 [112F1]
1 (1 for DPPM 0.00-0.02)

Now turn to the next compound.
Q: I am curious: what Binding affinity ranking value has been reported for O=c1c2c([nH]c3nc(CCc4ccccc4)nn13)CCC2 [cmpd13] ?
A: 3 (3 for DPPM 0.04-0.06)

====

Target: PDZ1 domain of MDA-9/Syntenin (PDZ12) (Homo sapiens)
Construct: HSQC spectrum of 50 μM PDZ12 caused by compound at 1:1 molar ratio
Experiment: [15N,1H] HSQC chemical shift change ranking of compound affinity
Format: binding
Settings: chemical shift changes (DPPM) of backbone amide of residue 147, 50 μM PDZ12, compound at 1:1 molar ratio
Source text: *Rank ordering of compound affinity for PDZ1 were estimated based on chemical shift changes (DPPM) of the backbone amide of residue 147 on the [^15N,^1H] […] Kd values reported in parentheses were obtained by NMR titration experiments following the chemical shifts of the backbone amide of residue 147 at different ligand concentrations.
Reported Property: Binding affinity ranking

1) O=c1c2c([nH]c3nc(NCc4cccs4)nn13)CCC2
1 (1 for DPPM 0.00-0.02)
2) Cc1cc(=O)n2nc(SCc3ccccc3)nc2[nH]1
4 (4 for DPPM 0.06-0.08)
3) Cc1cc(NC(=O)c2nc3[nH]c4c(c(=O)n3n2)CCC4)c(C)cc1NC(=O)Cc1ccc(-c2ccccc2)cc1
N.B.
4) Cc1cc(=O)n2nc(C(=O)Nc3ccc4c(c3)OCO4)nc2[nH]1
3 (3 for DPPM 0.04-0.06)
5) O=c1[nH]c2sc3c(c2c2ncnn12)CCCC3
1 (1 for DPPM 0.00-0.02)

Q: I'd like to know its Binding affinity ranking. The compound in question is Cc1cc(=O)n2nc(C(=O)Nc3cc(Cl)c(N)cc3Cl)nc2[nH]1
A: 6 (6 for DPPM above 0.1)

Q: Lookup Cc1c(C)c(NC(=O)c2nc3[nH]c4c(c(=O)n3n2)CCC4)c(C)c(C)c1N
A: 5 (5 for DPPM 0.08-0.1)

====

biological target: PDZ1 domain of MDA-9/Syntenin (PDZ12) (Homo sapiens, UniProt O00560); construct: HSQC spectrum of 50 μM PDZ12 caused by compound at 1:1 molar ratio; experiment: [15N,1H] HSQC chemical shift change ranking of compound affinity; format: binding; settings: chemical shift changes (DPPM) of backbone amide of residue 147, 50 μM PDZ12, compound at 1:1 molar ratio
Here, each record is paired with measured Binding affinity ranking data.

1. Cc1cc(NC(=O)c2nc3[nH]c4c(c(=O)n3n2)CCC4)c(C)cc1NC(=O)CCc1nnc(-c2ccsc2)o1
3 (3 for DPPM 0.04-0.06)

Q: Query Binding affinity ranking on PDZ1 domain of MDA-9/Syntenin (PDZ12) (Homo sapiens, UniProt O00560) for Nc1ccc(NC(=O)c2nc3[nH]c4c(c(=O)n3n2)CCC4)cc1
A: 2 (2 for DPPM 0.02-0.04)

Q: Entry to check: COc1ccc(Br)c(-c2nnc(CCC(=O)Nc3cc(C)c(NC(=O)c4nc5[nH]c6c(c(=O)n5n4)CCC6)cc3C)o2)c1
A: 1 (1 for DPPM 0.00-0.02)

Q: Now the compound O=c1c2c([nH]c3nc(COc4ccccc4)nn13)CCC2
A: 5 (5 for DPPM 0.08-0.1)

====

target: PDZ1 domain of MDA-9/Syntenin (PDZ12) (Homo sapiens, UniProt O00560); construct: HSQC spectrum of 50 μM PDZ12 caused by compound at 1:1 molar ratio; assay: [15N,1H] HSQC chemical shift change ranking of compound affinity; format: binding; settings: chemical shift changes (DPPM) of backbone amide of residue 147, 50 μM PDZ12, compound at 1:1 molar ratio
A collection of compounds and their measured Binding affinity ranking

See these solved cases before continuing.
1. Cc1cc(=O)n2nc(C(=O)Nc3ccc4c(c3)OCCO4)nc2[nH]1 [cmpd7]
2 (2 for DPPM 0.02-0.04)
2. Cc1cc(=O)n2nc(C(=O)Nc3ccc(N)cc3)nc2[nH]1 [112E7]
1 (1 for DPPM 0.00-0.02)
3. Cc1cc(=O)n2nc(C(=O)Nc3cccc(Cl)c3)nc2[nH]1 [cmpd10]
4 (4 for DPPM 0.06-0.08)
4. Cc1cc(=O)n2nc(NCc3ccccc3)nc2[nH]1 [cmpd1]
2 (2 for DPPM 0.02-0.04)

Now consider a different compound.
Q: Suppose we examine the compound Cc1cc(=O)n2nc(C(=O)Nc3ccc(O)cc3)nc2[nH]1 [112D11] ; what Binding affinity ranking value has been reported?
A: 2 (2 for DPPM 0.02-0.04)

All figures here come from patent US20230066830A1.
